Catalogue of inhibition of growth at 10 µM readings, one per entry.
# System: HOP-62
# protocol: Cytotoxicity against human HOP62 cells assessed as growth inhibition at 10 uM after 48 hrs by SRB assay relative to control
# Format: functional
# recordedConditions: HOP-62, 48 h, read-out: GI

Example entries and their recorded answers appear below.
[[record]]
chemicalstructure = "O=c1oc2cc(NCCN3CCOCC3)ccc2cc1-c1nc2ccccc2[nH]1"
testedtarget = "HOP-62"
resulttype = "inhibition of growth at 10 µM"
valuereported = "< 20%"

[[record]]
chemicalstructure = "CN1CCN(c2ccc3cc(-c4nc5ccccc5[nH]4)c(=O)oc3c2)CC1"
testedtarget = "HOP-62"
resulttype = "inhibition of growth at 10 µM"
valuereported = "< 20%"

[[record]]
chemicalstructure = "NCCNc1ccc2cc(-c3nc4ccccc4[nH]3)c(=O)oc2c1"
testedtarget = "HOP-62"
resulttype = "inhibition of growth at 10 µM"
valuereported = "< 20%"


# next molecule below
Task: Supply recorded inhibition of growth at 10 µM for O=c1oc2cc(Br)ccc2cc1-c1nc2ccccc2[nH]1 here.
Result: < 20%

###

Catalogue of inhibition of growth at 10 µM readings, one per entry.
# Test system: NCI-H522
# protocol: Cytotoxicity against human NCI-H522 cells assessed as growth inhibition at 10 uM after 48 hrs by SRB assay relative to control
# Assay type: functional
# recordedConditions: NCI-H522, 48 h, read-out: GI

Example entries and their recorded answers appear below.
[[record]]
compound = "CN1CCN(c2ccc3cc(-c4nc5ccccc5[nH]4)c(=O)oc3c2)CC1"
valuereported = "< 20%"

[[record]]
compound = "O=c1oc2cc(Br)ccc2cc1-c1nc2ccccc2[nH]1"
valuereported = "20.6%"

[[record]]
compound = "O=c1oc2cc(NCCO)ccc2cc1-c1nc2ccccc2[nH]1"
valuereported = "23.7%"


Task: Supply recorded inhibition of growth at 10 µM for O=c1oc2cc(NCCN3CCOCC3)ccc2cc1-c1nc2ccccc2[nH]1 here.
Result: < 20%

Task: Supply recorded inhibition of growth at 10 µM for O=c1oc2cc(N3CCOCC3)ccc2cc1-c1nc2ccccc2[nH]1 here.
Result: < 20%

Task: Supply recorded inhibition of growth at 10 µM for NCCNc1ccc2cc(-c3nc4ccccc4[nH]3)c(=O)oc2c1 here.
Result: < 20%

Task: Supply recorded inhibition of growth at 10 µM for O=c1[nH]cc(F)c(=O)[nH]1 [FLUOROURACIL] here.
Result: 58%

###

# Tested on: Malme-3M
# protocol: Cytotoxicity against human MALME-3M cells assessed as growth inhibition at 10 uM after 48 hrs by SRB assay relative to control
# Format: functional
# recordedConditions: read-out: GI
Catalogue of inhibition of growth at 10 µM readings, one per entry.

Task: Supply recorded inhibition of growth at 10 µM for O=c1[nH]cc(F)c(=O)[nH]1 here.
Result: 58.2%

Task: Supply recorded inhibition of growth at 10 µM for CN1CCN(c2ccc3cc(-c4nc5ccccc5[nH]4)c(=O)oc3c2)CC1 here.
Result: < 20%

Task: Supply recorded inhibition of growth at 10 µM for O=c1oc2cc(NCCN3CCOCC3)ccc2cc1-c1nc2ccccc2[nH]1 here.
Result: < 20%

Task: Supply recorded inhibition of growth at 10 µM for O=c1oc2cc(NCCO)ccc2cc1-c1nc2ccccc2[nH]1 here.
Result: 29.8%

Task: Supply recorded inhibition of growth at 10 µM for NCCNc1ccc2cc(-c3nc4ccccc4[nH]3)c(=O)oc2c1 here.
Result: < 20%

Task: Supply recorded inhibition of growth at 10 µM for O=c1oc2cc(N3CCOCC3)ccc2cc1-c1nc2ccccc2[nH]1 here.
Result: < 20%

Task: Supply recorded inhibition of growth at 10 µM for O=c1oc2cc(Br)ccc2cc1-c1nc2ccccc2[nH]1 here.
Result: < 20%
